B1: PLD5 (parent)
chain: KRTYWPDLDAKIREALVLRSVRVR

variants of: B1; test: protein stability index of a GFP-peptide fusion (GPS, HEK-293T) (PSI 1-6); higher = more stable; conditions: c terminus: a fixed tail appended;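 further: lentivirally expressed fusions sorted by FACS into six bins by GFP to DsRed ratio, PSI derived from sequencing read proportions per bin multiplied by bin number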
Give measured protein stability index for each item. Keep answers brief.
Output spec: single numeric token, no unit.

Read the entry S20Q and write its reported protein stability index.
2.04

Tell me measured protein stability index for D7S please.
2.02

Give the measured protein stability index for K11Y
1.99

Retrieve protein stability index measured for L18W and print it.
2.04

Quickly give me recorded protein stability index for S20R
2

Specify protein stability index for R24S and stop.
1.97

Provide one value: measured protein stability index of Y4I
1.96
